# Subject of test: PIK3CG (human) (UniProt P48736)
# Sequence (P48736 whole entry, looked up): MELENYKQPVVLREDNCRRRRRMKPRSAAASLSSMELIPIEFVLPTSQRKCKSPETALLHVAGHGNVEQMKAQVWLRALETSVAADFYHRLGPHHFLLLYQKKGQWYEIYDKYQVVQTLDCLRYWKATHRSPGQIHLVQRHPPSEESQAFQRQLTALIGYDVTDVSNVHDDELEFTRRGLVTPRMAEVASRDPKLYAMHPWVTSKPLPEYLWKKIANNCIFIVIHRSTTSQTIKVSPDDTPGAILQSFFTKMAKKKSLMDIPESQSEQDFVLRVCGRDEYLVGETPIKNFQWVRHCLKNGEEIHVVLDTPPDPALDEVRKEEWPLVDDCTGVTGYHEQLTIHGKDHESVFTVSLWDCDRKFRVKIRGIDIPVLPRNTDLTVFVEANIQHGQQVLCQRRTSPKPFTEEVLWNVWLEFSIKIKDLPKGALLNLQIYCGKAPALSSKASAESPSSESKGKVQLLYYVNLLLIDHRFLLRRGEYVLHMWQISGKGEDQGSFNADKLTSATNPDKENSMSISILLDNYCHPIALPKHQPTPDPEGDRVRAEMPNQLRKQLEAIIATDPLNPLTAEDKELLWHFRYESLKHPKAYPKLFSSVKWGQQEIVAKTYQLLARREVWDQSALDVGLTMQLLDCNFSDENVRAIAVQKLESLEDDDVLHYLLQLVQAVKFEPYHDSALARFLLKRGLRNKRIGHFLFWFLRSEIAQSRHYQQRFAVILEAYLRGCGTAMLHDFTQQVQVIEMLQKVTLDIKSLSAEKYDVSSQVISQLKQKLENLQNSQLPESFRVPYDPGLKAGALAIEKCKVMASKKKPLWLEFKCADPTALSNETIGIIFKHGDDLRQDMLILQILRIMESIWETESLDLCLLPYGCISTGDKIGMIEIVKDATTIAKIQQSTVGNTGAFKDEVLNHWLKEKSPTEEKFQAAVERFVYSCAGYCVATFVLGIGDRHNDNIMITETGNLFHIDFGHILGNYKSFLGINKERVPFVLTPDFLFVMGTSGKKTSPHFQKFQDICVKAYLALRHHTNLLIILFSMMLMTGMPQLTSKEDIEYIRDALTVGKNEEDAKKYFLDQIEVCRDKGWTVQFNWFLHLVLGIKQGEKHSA
# Experiment description: Enzyme Assay
# pIC50 annotations
Would you please state pIC50, meaning minus log10 of the concentration in mol/L, as a bare number?

{"Smiles entry": "CN1CCN(c2ccc(Nc3ncc4cc(C#N)c(=O)n(C5CCCC5)c4n3)cc2)CC1", "pIC50": 5.95}
{"Smiles entry": "Cc1nc2cnc3ccc(C#Cc4cccnc4)cc3c2n1-c1ccc(C(C)(C)C#N)cc1", "pIC50": 6.95}
{"Smiles entry": "Cn1c(=O)n(-c2ccc(C(C)(C)C#N)cc2)c2c3cc(C#Cc4cccnc4)ccc3ncc21", "pIC50": 6.46}
{"Smiles entry": "CCN1CCN(c2cccc3c2CCN3C(=O)Cc2nc(N3CCOCC3)cc(=O)[nH]2)CC1", "pIC50": 5.00}

Fill in: pIC50 on PIK3CG (human) (UniProt P48736), entry Nc1ncc(-c2cnc3ccc(-c4ccc(C(=O)N5CCN(Cc6ccccn6)CC5)cc4)nn23)cc1C(F)(F)F
5.90

----------
# Subject of test: EGFR (Human), P00533 [T790M/L858R]
# Sequence (P00533 whole entry T790M/L858R, looked up): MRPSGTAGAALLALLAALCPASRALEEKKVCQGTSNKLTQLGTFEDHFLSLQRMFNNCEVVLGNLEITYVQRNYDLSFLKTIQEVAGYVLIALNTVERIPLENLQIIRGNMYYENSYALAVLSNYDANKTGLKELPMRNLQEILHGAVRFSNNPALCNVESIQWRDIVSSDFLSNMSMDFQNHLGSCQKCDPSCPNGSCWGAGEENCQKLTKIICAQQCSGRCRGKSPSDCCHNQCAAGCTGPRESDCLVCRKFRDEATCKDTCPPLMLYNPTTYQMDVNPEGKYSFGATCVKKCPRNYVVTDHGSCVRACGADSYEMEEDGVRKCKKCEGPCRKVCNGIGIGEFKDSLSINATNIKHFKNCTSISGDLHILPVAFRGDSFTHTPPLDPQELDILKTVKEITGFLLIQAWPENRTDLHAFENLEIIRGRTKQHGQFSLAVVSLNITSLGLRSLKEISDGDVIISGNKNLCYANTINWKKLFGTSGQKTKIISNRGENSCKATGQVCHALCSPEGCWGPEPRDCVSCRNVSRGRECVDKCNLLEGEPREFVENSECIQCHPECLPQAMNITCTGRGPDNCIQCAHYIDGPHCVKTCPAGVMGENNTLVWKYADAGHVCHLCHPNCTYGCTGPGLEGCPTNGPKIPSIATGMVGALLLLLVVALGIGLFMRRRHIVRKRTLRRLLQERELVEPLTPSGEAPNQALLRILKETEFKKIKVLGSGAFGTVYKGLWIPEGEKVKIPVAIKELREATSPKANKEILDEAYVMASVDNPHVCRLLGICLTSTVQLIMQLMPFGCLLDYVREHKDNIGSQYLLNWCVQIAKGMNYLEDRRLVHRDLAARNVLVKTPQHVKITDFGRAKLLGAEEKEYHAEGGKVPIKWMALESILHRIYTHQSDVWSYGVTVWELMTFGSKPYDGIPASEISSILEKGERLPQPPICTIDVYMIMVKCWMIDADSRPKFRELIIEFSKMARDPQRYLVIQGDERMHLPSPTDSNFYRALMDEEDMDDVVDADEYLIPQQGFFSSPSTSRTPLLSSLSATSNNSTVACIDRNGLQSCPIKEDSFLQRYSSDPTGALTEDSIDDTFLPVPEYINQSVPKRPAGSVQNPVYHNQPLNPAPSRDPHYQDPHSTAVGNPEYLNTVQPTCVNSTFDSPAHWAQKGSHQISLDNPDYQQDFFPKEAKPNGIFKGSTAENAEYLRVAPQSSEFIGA
Endpoint: pIC50
Would you please state pIC50, meaning minus log10 of the concentration in mol/L, as a bare number?

Give a short answer stating reported pIC50 for C=CC(=O)Nc1cccc(N2C(=O)N(Cc3ccccc3)Cc3cnc(Nc4ccc(N5CCN(C)CC5)cc4OC)nc32)c1 .
9.15

----------
Reported IC50 for target or system EGFR (Human), P00533 [T790M/L858R], by entry.

{"Smiles entry": "C=CC(=O)N[C@@H]1CCCC[C@H](Nc2nc(Nc3cnn(C)c3)ncc2Cl)C1", "Result value": "10 to 100 nM"}
{"Smiles entry": "C=CC(=O)Nc1cccc(Nc2nc(NCc3cnn(C)c3)ncc2Cl)c1", "Result value": "10 to 100 nM"}
{"Smiles entry": "C=CC(=O)N[C@H]1CCC[C@@H](Nc2nc(Nc3cnn(C)c3)ncc2Cl)C1", "Result value": "10 to 100 nM"}
{"Smiles entry": "C=CC(=O)Nc1ccc(F)c(Nc2nc(Nc3cn(C)nc3C)ncc2Cl)c1", "Result value": "< 10 nM"}

Give a short answer stating reported IC50 for C=CC(=O)Nc1cccc(Nc2nc(Nc3cn(C)nc3C)ncc2Cl)n1 .
10 to 100 nM

----------
pIC50: −log10 of the molar value.
Reported pIC50 for target or system EGFR (UniProt P00533), by entry.

{"Smiles entry": "CCS(=O)(=O)c1ccc(OC)c(Nc2ncc(-c3cccc(-c4ccccc4F)c3)o2)c1", "pIC50": "< 5.00"}

Query compound follows.
Fill in: pIC50 on EGFR (UniProt P00533), entry CCS(=O)(=O)c1ccc(OC)c(Nc2ncc(-c3cccc(-c4ccccn4)c3)o2)c1
< 5.00

----------
# Subject of test: CDK2 (UniProt P24941)
# Experiment description: Enzyme Assay
# IC50 annotations
Express your answer in µM, writing the number without its unit.

{"Compound": "COc1ccc2cnc(Nc3ccc(N4CCN(C(=O)OC(C)(C)C)CC4)cc3)nc2c1C1CCCC1", "IC50 / µM": 5}
{"Compound": "Cc1cc(-c2cc(-c3ccnc(N)n3)ccc2O)nc(N)n1", "IC50 / µM": 0.0043}
{"Compound": "Cn1cc(-c2cnn3c(N)c(-c4ccccc4)c(C4CCCNC4)nc23)cn1 (stereo unspecified)", "IC50 / µM": 8.33}

Give a short answer stating reported IC50 for O=C1/C(=C2\Nc3ccccc3C2=O)Nc2ccccc21 .
70

----------
# Subject of test: PIK3CG (UniProt P48736)
# Sequence (P48736 whole entry, looked up): as the sequence (P48736 whole entry, looked up) above
pIC50: −log10 of the molar value.
# pIC50 annotations

{"Smiles entry": "CON=C1NC(=O)/C(=C/c2ccc3c(c2)OCO3)S1", "Result value": "> 6.00"}
{"Smiles entry": "COC(=O)c1sccc1S(=O)(=O)N=C1NC(=O)/C(=C/c2ccc3ncccc3c2)S1", "Result value": "> 6.00"}
{"Smiles entry": "O=C1NC(=NCc2ccccc2)S/C1=C\\c1ccc2c(c1)OCO2", "Result value": "> 5.82"}

Query compound follows.
Fill in: pIC50 on PIK3CG (UniProt P48736), entry CN=C1NC(=O)/C(=C/c2ccc3ncnc(N(C)C)c3c2)S1
> 6.00

----------
# Subject of test: EGFR (human) (UniProt P00533)
# Sequence (P00533 whole entry, looked up): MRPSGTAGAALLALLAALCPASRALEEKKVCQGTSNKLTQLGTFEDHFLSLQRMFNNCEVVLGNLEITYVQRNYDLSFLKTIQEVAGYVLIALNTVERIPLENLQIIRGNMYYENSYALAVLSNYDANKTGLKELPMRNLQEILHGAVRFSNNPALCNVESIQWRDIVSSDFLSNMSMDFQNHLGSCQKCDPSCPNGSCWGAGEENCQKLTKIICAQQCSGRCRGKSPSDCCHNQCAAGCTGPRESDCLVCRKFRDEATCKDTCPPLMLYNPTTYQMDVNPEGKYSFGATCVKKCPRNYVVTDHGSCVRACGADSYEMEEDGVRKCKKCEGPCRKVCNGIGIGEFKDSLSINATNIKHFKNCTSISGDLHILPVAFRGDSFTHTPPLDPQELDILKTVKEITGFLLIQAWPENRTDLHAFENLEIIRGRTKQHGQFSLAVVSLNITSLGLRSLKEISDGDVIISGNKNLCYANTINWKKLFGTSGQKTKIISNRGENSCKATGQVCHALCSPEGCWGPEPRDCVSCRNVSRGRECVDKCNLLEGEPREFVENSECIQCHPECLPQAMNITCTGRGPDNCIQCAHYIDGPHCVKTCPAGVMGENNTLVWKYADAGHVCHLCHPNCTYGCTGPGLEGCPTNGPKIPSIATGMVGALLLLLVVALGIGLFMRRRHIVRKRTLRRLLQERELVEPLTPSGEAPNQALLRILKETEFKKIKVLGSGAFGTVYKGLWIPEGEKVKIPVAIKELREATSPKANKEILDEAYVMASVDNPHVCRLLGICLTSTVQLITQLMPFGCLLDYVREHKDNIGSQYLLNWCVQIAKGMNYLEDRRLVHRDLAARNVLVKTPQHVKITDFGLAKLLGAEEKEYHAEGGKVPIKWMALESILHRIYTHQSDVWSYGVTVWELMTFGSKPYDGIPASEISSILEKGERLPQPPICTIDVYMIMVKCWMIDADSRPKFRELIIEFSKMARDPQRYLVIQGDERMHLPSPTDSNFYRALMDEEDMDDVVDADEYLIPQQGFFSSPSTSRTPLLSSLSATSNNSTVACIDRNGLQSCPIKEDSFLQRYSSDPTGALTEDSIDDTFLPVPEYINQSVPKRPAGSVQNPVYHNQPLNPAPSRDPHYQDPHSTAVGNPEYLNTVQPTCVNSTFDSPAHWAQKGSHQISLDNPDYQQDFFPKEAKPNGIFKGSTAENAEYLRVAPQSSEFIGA
# Experimental setup: a431
Endpoint: IC50 (µM)
Express your answer in µM, writing the number without its unit.

Fill in: IC50 on EGFR (human) (UniProt P00533), entry COc1cc2ncnc(N[C@H](COC(C)=O)c3ccccc3)c2cc1OC
5.3

----------
# Subject of test: EGFR (human) (UniProt P00533)
# Experimental setup: a431
Endpoint: IC50

Give a short answer stating reported IC50 for N.N.[Cl][Pt][Cl] .
10.6 µM

----------
# Subject of test: EGFR (human) (UniProt P00533)
# Experimental setup: a431
# pIC50 annotations
Would you please state pIC50, meaning minus log10 of the concentration in mol/L, as a bare number?

Reference set, count: 2
{"Smiles entry": "Nc1nc(Nc2ccc(Cl)cc2)c2c(n1)[nH]c1cccc(Cl)c12", "pIC50": 4.36}
{"Smiles entry": "CC(C)(C)C(=O)Nc1nc(Nc2ccc(Cl)cc2)c2c(n1)[nH]c1cccc(Cl)c12", "pIC50": 4.26}

Query compound follows.
Give a short answer stating reported pIC50 for COc1cccc(Nc2nc(N)nc3[nH]c4cccc(Cl)c4c23)c1 .
3.78

----------
# Subject of test: PIK3CA (human)
# Experiment description: Assessment of PIK3CA Kinase Activity in NZOV9 Cells
pIC50: −log10 of the molar value.
# pIC50 annotations

Reference set, count: 2
{"Smiles entry": "CC(=NN(C)S(=O)(=O)c1cc([N+](=O)[O-])ccc1C)c1cnn2ccc(Br)cc12", "pIC50": "< 4.70"}
{"Smiles entry": "Cc1ccc([N+](=O)[O-])cc1S(=O)(=O)N(C)N=Cc1cnn2ccc(O)cc12", "pIC50": "< 4.70"}

Query compound follows.
Give a short answer stating reported pIC50 for Cc1ccc([N+](=O)[O-])cc1S(=O)(=O)N(C)N=Cc1cnn2cccc(C)c12 .
< 4.70

----------
# Subject of test: ROCK2 (human)
# Experiment description: Inhibition of ROCK2 Kinase Activity
Endpoint: pIC50
Would you please state pIC50, meaning minus log10 of the concentration in mol/L, as a bare number?

Reference set, count: 4
{"Compound": "COc1cccc(CNC(=O)Nc2nc(-c3ccncc3)cs2)c1", "Subject of test": "ROCK2 (human)", "Result value": 8.00}
{"Compound": "C[C@@H](NC(=O)Nc1nc(-c2ccncc2)cs1)c1ccccc1", "Subject of test": "ROCK2 (human)", "Result value": 7.92}
{"Compound": "Nc1nc(Nc2ccc(Sc3ccncc3)c(F)c2)cc(Oc2cccc(Cl)c2)n1", "Subject of test": "ROCK2 (human)", "Result value": 7.15}
{"Compound": "O=C(Nc1nc(-c2ccncc2)cs1)C1COc2ccccc2O1 (stereo not drawn)", "Subject of test": "ROCK2 (human)", "Result value": 7.40}

Give a short answer stating reported pIC50 for COCCN(C(=O)c1cccc(CNC(=O)c2ccc(OC)c(OC)c2)c1)c1ccc2c(c1)CNCC2 .
7.00

Give a short answer stating reported pIC50 for Nc1nccc2cc(CNCCc3ccccc3)ccc12 .
5.50

Give a short answer stating reported pIC50 for O=C([C@H](O)c1cccc(Cl)c1)N1CCN(c2ccc3[nH]ncc3c2)CC1 .
7.00

----------
# IC50 annotations
# Subject of test: ROCK2 (human) (UniProt O75116)
# Sequence (O75116 whole entry, looked up): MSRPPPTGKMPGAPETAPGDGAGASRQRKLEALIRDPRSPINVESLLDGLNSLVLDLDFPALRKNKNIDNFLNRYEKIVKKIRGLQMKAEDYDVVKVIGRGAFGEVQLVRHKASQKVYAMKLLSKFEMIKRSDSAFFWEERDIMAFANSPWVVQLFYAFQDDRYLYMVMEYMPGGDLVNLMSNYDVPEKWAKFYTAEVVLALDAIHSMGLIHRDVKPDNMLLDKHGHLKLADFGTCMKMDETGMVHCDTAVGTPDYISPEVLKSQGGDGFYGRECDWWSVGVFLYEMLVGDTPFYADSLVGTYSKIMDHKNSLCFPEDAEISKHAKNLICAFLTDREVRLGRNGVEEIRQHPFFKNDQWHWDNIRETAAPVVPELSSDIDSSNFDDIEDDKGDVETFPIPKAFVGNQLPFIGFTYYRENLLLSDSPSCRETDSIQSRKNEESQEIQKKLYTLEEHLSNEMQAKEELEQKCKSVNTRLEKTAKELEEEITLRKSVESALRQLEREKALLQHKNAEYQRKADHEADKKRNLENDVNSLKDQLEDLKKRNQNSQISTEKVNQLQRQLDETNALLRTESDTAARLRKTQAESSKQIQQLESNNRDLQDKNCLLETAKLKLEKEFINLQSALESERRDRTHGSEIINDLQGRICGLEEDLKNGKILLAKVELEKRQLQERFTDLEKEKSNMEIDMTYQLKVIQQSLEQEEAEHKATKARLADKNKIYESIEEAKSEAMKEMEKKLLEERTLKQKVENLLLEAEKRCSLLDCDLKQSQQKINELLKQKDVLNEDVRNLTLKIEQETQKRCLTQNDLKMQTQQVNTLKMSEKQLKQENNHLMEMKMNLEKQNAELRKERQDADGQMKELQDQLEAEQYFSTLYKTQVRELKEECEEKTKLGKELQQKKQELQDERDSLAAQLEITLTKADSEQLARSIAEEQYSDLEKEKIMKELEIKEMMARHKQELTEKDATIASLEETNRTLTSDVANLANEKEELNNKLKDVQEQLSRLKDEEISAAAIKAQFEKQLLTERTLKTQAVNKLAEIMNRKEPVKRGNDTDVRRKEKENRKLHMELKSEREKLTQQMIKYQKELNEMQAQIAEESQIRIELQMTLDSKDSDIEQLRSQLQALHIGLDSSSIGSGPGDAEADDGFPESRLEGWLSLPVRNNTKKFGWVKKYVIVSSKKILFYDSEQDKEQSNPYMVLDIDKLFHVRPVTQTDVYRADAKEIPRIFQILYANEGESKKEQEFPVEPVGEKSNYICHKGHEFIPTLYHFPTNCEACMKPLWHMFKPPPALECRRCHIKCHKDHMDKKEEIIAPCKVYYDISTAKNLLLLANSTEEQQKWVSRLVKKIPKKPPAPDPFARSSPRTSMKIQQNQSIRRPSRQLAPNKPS
# Experiment description: Assessment of ROCK2 Kinase Activity (Fluorescence Polarization Assay)

{"Compound": "Cc1ccc(S(=O)(=O)CCOC(=O)c2cccc(-c3cc(C(=O)Nc4ccncc4)ccc3C(C)N)c2)cc1 (centres undefined)", "Endpoint": "IC50", "Result value": "100 to 1000 nM"}
{"Compound": "CC(N)c1ccc(C(=O)Nc2ccncc2)cc1-c1cccc(C(=O)OCc2ccncc2)c1 (centres undefined)", "Endpoint": "IC50", "Result value": "< 100 nM"}
{"Compound": "COC(=O)c1cc2c(-c3cc(C(=O)Nc4ccncc4)ccc3C(C)N)cccc2[nH]1 (centres undefined)", "Endpoint": "IC50", "Result value": "100 to 1000 nM"}

Query compound follows.
Give a short answer stating reported IC50 for CCCOC(=O)c1cc(-c2cc(C(=O)Nc3ccncc3)ccc2C(C)N)c[nH]1 (centres undefined) .
< 100 nM

----------
# Subject of test: MAP2K1;MAPK14 (human)
# Experiment description: Inhibition of HT1197 Cell Proliferation by MTT Assay
Endpoint: IC50 (nM)
Express your answer in nM, writing the number without its unit.

Give a short answer stating reported IC50 for COc1cc2c(Nc3ccc(Sc4nccn4C)c(Cl)c3)c(C#N)cnc2cc1OCCCN1CCOCC1 .
50
